B1: CCDC70 (parent)
chain: FSFKVSRWMGLACFRSLAASSPSI

# Variants of: B1
# run.description: protein stability index of a GFP-peptide fusion (GPS, HEK-293T) (PSI 1-6); higher = more stable;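 note: lentivirally expressed fusions sorted by FACS into six bins by GFP to DsRed ratio, PSI derived from sequencing read proportions per bin multiplied by bin number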
# condition.set: c terminus: a fixed tail appended
Kindly supply the reported protein stability index values for the records listed here.
Answers are plain numbers.

Answered examples (2):
Ask: Look up and state reported protein stability index for FSFKVSRWMELACFRSLAASSPSI [G10E]
Result: 3.35

Ask: Look up and state reported protein stability index for FSFKVSNWMGLACFRSLAASSPSI [R7N]
Result: 2.53

For each of the variants below, state protein stability index.
1. FSFKVSRLMGLACFRSLAASSPSI [W8L]
2. FSFKVSRWMGLACFRSLARSSPSI [A19R]
3. FSFKVSRKMGLACFRSLAASSPSI [W8K]
4. FSFEVSRWMGLACFRSLAASSPSI [K4E]
5. FSFKVSRWYGLACFRSLAASSPSI [M9Y]
6. FSFKVSRWMGLYCFRSLAASSPSI [A12Y]
7. FSFKASRWMGLACFRSLAASSPSI [V5A]

Result:
1: 3.27; 2: 3.39; 3: 2.29; 4: 1.92; 5: 3.2; 6: 2.87; 7: 3.24

For each of the variants below, state protein stability index.
1. FSFKVSRWMGLACFRSLACSSPSI [A19C]
2. FSFRVSRWMGLACFRSLAASSPSI [K4R]

Result:
[1.8, 2.22]

For each of the variants below, state protein stability index.
1. FSFHVSRWMGLACFRSLAASSPSI [K4H]
2. FSFKVSRWMGLACVRSLAASSPSI [F14V]
3. FSFDVSRWMGLACFRSLAASSPSI [K4D]
4. FSFKVSRWMGLACWRSLAASSPSI [F14W]
5. FSFKVMRWMGLACFRSLAASSPSI [S6M]
6. FSFKVSRWMGLACFRSLEASSPSI [A18E]
7. FSFKVSRWMGLACFRSLAASLPSI [S21L]
8. FSFKVSRWMGLACFRSLAASSPSF [I24F]

Result:
1. 2.73
2. 3.5
3. 3.56
4. 1.7
5. 2.17
6. 2.71
7. 3.55
8. 2.56

For each of the variants below, state protein stability index.
1. FSFKVSRPMGLACFRSLAASSPSI [W8P]
2. FSFKVSRWMGLACFRYLAASSPSI [S16Y]
3. FSFKVSRWMGLACFRSLAASSPSA [I24A]

Result:
1. 2.4
2. 3.27
3. 2.67
